test system: ECHCG; experiment: Pre-emergence herbicidal activity, glasshouse pot test; type: in vivo; settings: rate 1000 g/Ha, evaluated after 13 days, scale 0-5
EXPERIMENTAL_READOUT: ECHCG damage score, application pre-emergence
Could you respond with only the numeric value?

Documented ECHCG damage score, application pre-emergence of CN1C(=O)N(c2cc(C(F)(F)F)c(I)cn2)C(O)C1O (stereo not drawn) : 4

Documented ECHCG damage score, application pre-emergence of CCOC1C(O)N(c2cc(C(F)(F)C(F)(F)F)ccn2)C(=O)N1C (stereo not drawn) : 3

Documented ECHCG damage score, application pre-emergence of CC1C(O)N(c2cc(C(F)(F)Cl)ccn2)C(=O)N1C (stereo not drawn) : 5

Documented ECHCG damage score, application pre-emergence of CC1C(O)N(c2cc(C(F)(F)F)ccn2)C(=O)N1C (stereo not drawn) : 5

Documented ECHCG damage score, application pre-emergence of CON1C(=O)N(c2ccc(C(F)(F)F)cn2)C(O)C1C (stereo not drawn) : 5

Documented ECHCG damage score, application pre-emergence of CCOC1C(O)N(c2cc(C(F)(F)F)c(I)cn2)C(=O)N1C (stereo not drawn) : 5

Documented ECHCG damage score, application pre-emergence of CCO[C@@H]1[C@@H](OC(=O)C(C)Cl)N(c2cc(C(F)(F)F)ccn2)C(=O)N1C (stereo partly drawn) : 4

Documented ECHCG damage score, application pre-emergence of CN1C(=O)N(c2ccc(C(F)(F)F)cn2)C(O)C1O (stereo not drawn) : 0

Documented ECHCG damage score, application pre-emergence of CC1C(O)N(c2cc(C(F)(F)F)c(-c3ccccn3)cn2)C(=O)N1C (stereo not drawn) : 5
